Tested on: Escherichia coli
assayName: Binding affinity to Escherichia coli sliding clamp assessed as dissociation rate constant by ITC analysis
*1 amine or outer side, *2 acyl side, *3 side chain or, on linkers, in order; H or OH if unused. Where a SMILES comes first, the peptide text is derived from it. [ ]: non-standard residue; d: D form. The star is where a group is joined. ACHC(1S,2S) = O=C([C@H]1CCCC[C@@H]1N[*:1])[*:2]; Acryloyl(3-(3-pyridyl),E) = O=C(/C=C/c1cccnc1)*; Cha = N[C@@H](CC1CCCCC1)C(=O)O; Phe(ol) = N[C@H](CO)Cc1ccccc1
outcomeMeasure: K

compound	measurement
CC(=O)N[C@@H](CCC(N)=O)C(=O)N[C@@H](CC1CCCCC1)C(=O)N[C@@H](CC(=O)O)C(=O)N[C@@H](CC(C)C)C(=O)NCC(=O)N[C@@H](CC(C)C)C(=O)O (Ac-Q[Cha]DLGL-OH)	1.7 10^-2/s
CC(C)C[C@H](NC(=O)[C@H](CC(=O)O)NC(=O)[C@H](CC1CCCCC1)NC(=O)[C@H](CCC(N)=O)NC(=O)/C=C/c1cccnc1)C(=O)N[C@@H](Cc1ccccc1)C(=O)O ({Acryloyl(3-(3-pyridyl),E)}-Q[Cha]DLF-OH)	7.4 10^-3/s
CC(=O)N[C@@H](CCC(N)=O)C(=O)N[C@@H](CC1CCCCC1)C(=O)N[C@@H](CC(=O)O)C(=O)N[C@@H](CC(C)C)C(=O)N[C@H](CO)Cc1ccccc1 (Ac-Q[Cha]DL[Phe(ol)])	1.9 10^-2/s
CC(=O)N[C@@H](CCC(N)=O)C(=O)N[C@@H](CC1CCCCC1)C(=O)N[C@@H](CC(=O)O)C(=O)N[C@@H](CC(C)C)C(=O)N1CCC[C@H]1C(=O)N[C@@H](Cc1ccccc1)C(=O)O (Ac-Q[Cha]DLPF-OH)	5 10^-3/s
CC(=O)N[C@@H](CCC(N)=O)C(=O)N[C@@H](CC1CCCCC1)C(=O)N[C@@H](CC(=O)O)C(=O)N[C@@H](CC(C)C)C(=O)N[C@H]1CCCC[C@@H]1C(=O)N[C@@H](CC(C)C)C(=O)O (Ac-Q[Cha]DL[ACHC(1S,2S)]L-OH)	2.9 10^-2/s

* * *

System: Escherichia coli
assayName: Binding affinity to Escherichia coli sliding clamp assessed as dissociation rate constant by ITC analysis
Where a SMILES comes first, the peptide text is derived from it. [ ]: non-standard residue; d: D form. Phe(3,4-Cl2) = N[C@@H](Cc1ccc(Cl)c(Cl)c1)C(=O)O; tBuAla = CC(C)(C)C[C@H](N)C(=O)O; Cha = N[C@@H](CC1CCCCC1)C(=O)O; NMeD = CN[C@@H](CC(=O)O)C(=O)O

compound	K
CC(=O)N[C@@H](CCC(N)=O)C(=O)N[C@@H](CC1CCCCC1)C(=O)N(C)[C@@H](CC(=O)O)C(=O)N[C@@H](CC(C)C)C(=O)N[C@@H](Cc1ccc(Cl)c(Cl)c1)C(=O)O (Ac-Q[Cha][NMeD]L[Phe(3,4-Cl2)]-OH)	1 10^-2/s
CC(=O)N[C@@H](CCCNC(=N)N)C(=O)N[C@@H](CCC(N)=O)C(=O)N[C@@H](CC1CCCCC1)C(=O)N(C)[C@@H](CC(=O)O)C(=O)N[C@@H](CC(C)C)C(=O)N[C@@H](Cc1ccc(Cl)c(Cl)c1)C(=O)O (Ac-RQ[Cha][NMeD]L[Phe(3,4-Cl2)]-OH)	2.1 10^-2/s
CC(=O)N[C@@H](CCCNC(=N)N)C(=O)N[C@@H](CCC(N)=O)C(=O)N[C@@H](CC1CCCCC1)C(=O)N[C@@H](CC(=O)O)C(=O)N[C@@H](CC(C)C)C(=O)N[C@@H](Cc1ccccc1)C(=O)O (Ac-RQ[Cha]DLF-OH)	1.9 10^-2/s
CC(=O)N[C@@H](CCC(N)=O)C(=O)N[C@@H](CC1CCCCC1)C(=O)N[C@@H](CC(=O)O)C(=O)N[C@@H](CC(C)C)C(=O)NCC(=O)N[C@@H](CC(C)(C)C)C(=O)O (Ac-Q[Cha]DLG[tBuAla]-OH)	3 10^-2/s

* * *

System: Escherichia coli
assayName: Binding affinity to Escherichia coli sliding clamp assessed as gibbs free energy change by ITC analysis
*1 amine or outer side, *2 acyl side, *3 side chain or, on linkers, in order; H or OH if unused. Where a SMILES comes first, the peptide text is derived from it. [ ]: non-standard residue; d: D form. The star is where a group is joined. NEtAsp = CCN([C@@H](CC(=O)[*:3])C(=O)[*:2])[*:1]; Phe(3,4-F2) = N[C@@H](Cc1ccc(F)c(F)c1)C(=O)O; Caffeoyl = O=C(/C=C/c1ccc(O)c(O)c1)*; X6 = O=C([C@@H]1CC(O)CN1[*:1])[*:2]; Cha = N[C@@H](CC1CCCCC1)C(=O)O; NMeD = CN[C@@H](CC(=O)O)C(=O)O; X1 = O=C(/C=C/c1ccccc1)*; Sar = CNCC(=O)O

compound	deltaG
CC(C)C[C@H](NC(=O)[C@@H]1CCCN1C(=O)[C@H](CC(C)C)NC(=O)[C@H](CC(=O)O)NC(=O)[C@H](CC1CCCCC1)NC(=O)[C@H](CCC(N)=O)NC(=O)/C=C/c1ccccc1)C(=O)O (X1-Q[Cha]DLPL-OH)	-9.4 kcal/mol
CC(=O)N[C@@H](CCC(N)=O)C(=O)N[C@@H](CC1CCCCC1)C(=O)N[C@@H](CC(=O)O)C(=O)N[C@@H](CC(C)C)C(=O)NCC(=O)N[C@@H](CC(C)C)C(=O)O (Ac-Q[Cha]DLGL-OH)	-8.4 kcal/mol
CC(=O)N[C@@H](CCC(N)=O)C(=O)N[C@@H](CC1CCCCC1)C(=O)N(C)[C@@H](CC(=O)O)C(=O)N[C@@H](CC(C)C)C(=O)N[C@@H](Cc1ccc(F)c(F)c1)C(=O)O (Ac-Q[Cha][NMeD]L[Phe(3,4-F2)]-OH)	-9.3 kcal/mol
CC(C)C[C@H](NC(=O)[C@H](CC(=O)O)NC(=O)[C@H](CC1CCCCC1)NC(=O)[C@H](CCC(N)=O)NC(=O)/C=C/c1ccc(O)c(O)c1)C(=O)N[C@@H](Cc1ccccc1)C(=O)O (Caffeoyl-Q[Cha]DLF-OH)	-9.5 kcal/mol
CC(=O)N[C@@H](CCC(N)=O)C(=O)N[C@@H](CC1CCCCC1)C(=O)N[C@@H](CC(=O)O)C(=O)N[C@@H](CC(C)C)C(=O)NCC(=O)N[C@@H](Cc1ccccc1)C(=O)O (Ac-Q[Cha]DLGF-OH)	-8.9 kcal/mol
CC(=O)N[C@@H](CCC(N)=O)C(=O)N[C@@H](CC1CCCCC1)C(=O)N[C@@H](CC(=O)O)C(=O)N[C@@H](CC(C)C)C(=O)N(C)CC(=O)N[C@@H](CC(C)C)C(=O)O (Ac-Q[Cha]DL[Sar]L-OH)	-8.5 kcal/mol
CCN(C(=O)[C@H](CC1CCCCC1)NC(=O)[C@H](CCC(N)=O)NC(C)=O)[C@@H](CC(=O)O)C(=O)N[C@@H](CC(C)C)C(=O)N[C@@H](Cc1ccccc1)C(=O)O (Ac-Q[Cha][NEtAsp]LF-OH)	-8.6 kcal/mol
CC(=O)N[C@@H](CCC(N)=O)C(=O)N[C@@H](CC1CCCCC1)C(=O)N(C)[C@@H](CC(=O)O)C(=O)N[C@@H](CC(C)C)C(=O)N[C@@H](Cc1ccccc1)C(=O)O (Ac-Q[Cha][NMeD]LF-OH)	-9.5 kcal/mol
CC(=O)N[C@@H](CCC(N)=O)C(=O)N[C@@H](CC1CCCCC1)C(=O)N[C@@H](CC(=O)O)C(=O)N[C@@H](CC(C)C)C(=O)N1CC(O)C[C@H]1C(=O)N[C@@H](CC(C)C)C(=O)O (stereo partly drawn) (Ac-Q[Cha]DL[X6]L-OH)	-8.8 kcal/mol

* * *

Measured deltaG, listed per entry for reference.
Test system: Escherichia coli
assayName: Binding affinity to Escherichia coli sliding clamp assessed as gibbs free energy change by ITC analysis
*1 amine or outer side, *2 acyl side, *3 side chain or, on linkers, in order; H or OH if unused. Where a SMILES comes first, the peptide text is derived from it. [ ]: non-standard residue; d: D form. The star is where a group is joined. Acryloyl(3-(3-pyridyl),E) = O=C(/C=C/c1cccnc1)*; Gly(N-3-morpholinopropyl) = O=C(O)CNCCCN1CCOCC1; Phe(3,4-Cl2) = N[C@@H](Cc1ccc(Cl)c(Cl)c1)C(=O)O; NH(4-MeO-phenyl) = COc1ccc(N*)cc1; Cha = N[C@@H](CC1CCCCC1)C(=O)O; NMeD = CN[C@@H](CC(=O)O)C(=O)O; CO = O=C([*:1])[*:2]

compound	assayTarget	deltaG / kcal/mol
CC(C)C[C@H](NC(=O)[C@H](CC(=O)O)NC(=O)[C@H](CC1CCCCC1)NC(=O)[C@H](CCC(N)=O)NC(=O)CNCCCN1CCOCC1)C(=O)N[C@@H](Cc1ccccc1)C(=O)O (H-[Gly(N-3-morpholinopropyl)]Q[Cha]DLF-OH)	Escherichia coli	-8.3
COc1ccc(NC(=O)N[C@@H](CCC(N)=O)C(=O)N[C@@H](CC2CCCCC2)C(=O)N[C@@H](CC(=O)O)C(=O)N[C@@H](CC(C)C)C(=O)N[C@@H](Cc2ccccc2)C(=O)O)cc1 ({NH(4-MeO-phenyl)-CO}-Q[Cha]DLF-OH)	Escherichia coli	-9.8
CC(C)C[C@H](NC(=O)[C@H](CC(=O)O)N(C)C(=O)[C@H](CC1CCCCC1)NC(=O)[C@H](CCC(N)=O)NC(=O)/C=C/c1cccnc1)C(=O)N1CCC[C@H]1C(=O)N[C@@H](Cc1ccccc1)C(=O)O ({Acryloyl(3-(3-pyridyl),E)}-Q[Cha][NMeD]LPF-OH)	Escherichia coli	-10.2
CC(=O)N[C@@H](CCC(N)=O)C(=O)N[C@@H](CC1CCCCC1)C(=O)N(C)[C@@H](CC(=O)O)C(=O)N[C@@H](CC(C)C)C(=O)N1CCC[C@H]1C(=O)N[C@@H](Cc1ccc(Cl)c(Cl)c1)C(=O)O (Ac-Q[Cha][NMeD]LP[Phe(3,4-Cl2)]-OH)	Escherichia coli	-9.1
